All figures here come from PubChem BioAssay (NCI).

assay: NCI Yeast Anticancer Drug Screen. Data for the mec2-1 strain (AID 157); conditions: S. cerevisiae mec2-1 strain, at 50.0 µM, active compounds read high
Compounds without any hit were thinned out: in the full panel of roughly 79,000, 15% have a hit.
Parameter growth inhibition: see the listing below.
Return type: number; implicit unit %.

Lookup: Quick one: growth inhibition of "N#CC1CCCCCC1" ?
Found: -12.4

Lookup: Another compound to look at: "Cn1nnnc1CC(=O)O"
Found: -12.9

Lookup: Input "Cc1cc(C(c2ccccc2)c2cc(C)cc(C(C)(C)CC(C)(C)C)c2O)c(O)c(C(C)(C)CC(C)(C)C)c1"
Found: 5

Lookup: Thanks! And CCCC1CCCC12CCc1ccccc1C2=O (stereo not drawn) ?
Found: -6.15

Lookup: Param item: "CCOc1ccc(/C=C2/C(=O)N(/C=C3/C(=O)Oc4ccccc4C3=O)C(=NC(C)=O)N2C)cc1"
Found: -13

Next:
Lookup: For the compound CC(C)(C)OC(=O)CC(NC(=O)OC(C)(C)C)C(=O)N[C@@H]1CCCC[C@H]1C(=O)OCc1ccccc1 (stereo partly drawn) , what growth inhibition is on record?
Found: 15.2

Lookup: // next record "C/C=C(/C)C(=O)O[C@H]1C(C)=C[C@]23C(=O)[C@@H](C=C(COC(C)=O)[C@@H](O)[C@]12O)[C@H]1[C@@H](C[C@H]3C)[C@@]1(C)OC(=O)/C(C)=C\C"
Found: 60.4

Lookup: Same lookup for "CCCNC(C)=O" , please.
Found: -26.1
